target: CYP3A4 (Homo sapiens); assay: Inhibition of CYP3A4 activity in pooled human liver microsomes (midazolam probe); type: in vitro ADME; set-up: made in house; host or cells: HEK293 cells (microsomal fraction)
Sequence (P08684 whole entry): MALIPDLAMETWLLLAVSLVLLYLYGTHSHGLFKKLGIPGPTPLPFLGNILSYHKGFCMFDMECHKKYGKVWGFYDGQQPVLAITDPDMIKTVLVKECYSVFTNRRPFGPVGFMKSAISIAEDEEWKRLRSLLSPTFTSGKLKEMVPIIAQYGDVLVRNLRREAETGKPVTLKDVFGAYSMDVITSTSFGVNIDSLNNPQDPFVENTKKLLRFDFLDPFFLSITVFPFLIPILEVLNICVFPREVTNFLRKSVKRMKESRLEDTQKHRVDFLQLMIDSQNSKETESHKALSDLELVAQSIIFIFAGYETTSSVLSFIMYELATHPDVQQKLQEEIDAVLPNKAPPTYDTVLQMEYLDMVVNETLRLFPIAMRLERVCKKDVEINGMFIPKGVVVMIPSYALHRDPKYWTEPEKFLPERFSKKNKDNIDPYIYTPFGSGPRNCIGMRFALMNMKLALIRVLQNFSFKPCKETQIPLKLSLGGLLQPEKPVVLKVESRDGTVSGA
Property: IC50 (µM)
Report the value in µM with no unit label.

Compound: CCCCCc1cc(O)c2c(c1)OC(C)(C)C1CC=C(C)CC21 (centres unmarked) [Δ8-THC, Δ8-Tetrahydrocannabinol]
Unit tag: µM
IC50: 0.48

## Task Form field: reported IC50 of CCCCCc1cc(O)c2c(c1)OC(C)(C)C1CC=C(CO)CC21 (centres unmarked) [11-OH-Δ8-THC, 11-hydroxy-Δ8-THC]
## Result 1.57
